B1: TRIM35 (parent)
chain: WEVQVSPTCPVCKDRASPADLRTN

# Variants of: B1
# Protocol Details: protein stability index of a GFP-peptide fusion (GPS, HEK-293T) (PSI 1-6); higher = more stable;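 note: lentivirally expressed fusions sorted by FACS into six bins by GFP to DsRed ratio, PSI derived from sequencing read proportions per bin multiplied by bin number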
# Particulars: c terminus: a fixed tail appended
// label = T if protein stability index is not less than 3, otherwise F

D14F : F
V3S : T
S6M : F

# bool: protein stability index of S6D >= 3 F

# bool: protein stability index of A16D >= 3 F

# bool: protein stability index of N24E >= 3 F

# bool: protein stability index of A16C >= 3 F

# bool: protein stability index of K13W >= 3 F

# bool: protein stability index of P18H >= 3 F

# bool: protein stability index of Q4L >= 3 F

# bool: protein stability index of V3G >= 3 F

# bool: protein stability index of T23S >= 3 F
